I'd be grateful if you could share measured polymerase ribozyme fitness (log ratio) for these entries.
B1: TPR t1 (parent)
chain: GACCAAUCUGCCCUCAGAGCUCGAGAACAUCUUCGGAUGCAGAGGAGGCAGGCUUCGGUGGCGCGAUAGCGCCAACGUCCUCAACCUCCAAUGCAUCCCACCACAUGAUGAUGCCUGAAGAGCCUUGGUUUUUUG

- Variants of: B1
- EXPERIMENT: polymerase ribozyme fitness, log enrichment relative to wild type (log ratio); higher = more active; in vitro selection for triplet polymerase activity
Respond numerically, and do not add a unit to the figure.

Indicate the recorded polymerase ribozyme fitness (log ratio) value for this variant: U54A C101U G120A
0.15

Indicate the recorded polymerase ribozyme fitness (log ratio) value for this variant: G60C C115A G120U
-0.0517

Indicate the recorded polymerase ribozyme fitness (log ratio) value for this variant: U54G A75U C89U
-0.98

Indicate the recorded polymerase ribozyme fitness (log ratio) value for this variant: C12G G36C A43C G63C
-4.59

Indicate the recorded polymerase ribozyme fitness (log ratio) value for this variant: A2G A74C
-0.276

Indicate the recorded polymerase ribozyme fitness (log ratio) value for this variant: C12G A29U C62G
-2.88

Indicate the recorded polymerase ribozyme fitness (log ratio) value for this variant: G57C U87A
-1.1

Indicate the recorded polymerase ribozyme fitness (log ratio) value for this variant: C13A C76G
-2.51

Indicate the recorded polymerase ribozyme fitness (log ratio) value for this variant: G10C G63A A75G C123U
-0.173

Indicate the recorded polymerase ribozyme fitness (log ratio) value for this variant: U33G C56A C88U
-4.09

Indicate the recorded polymerase ribozyme fitness (log ratio) value for this variant: G36C U55G
-1.03

Indicate the recorded polymerase ribozyme fitness (log ratio) value for this variant: C40G C62A
-1.9

Indicate the recorded polymerase ribozyme fitness (log ratio) value for this variant: U33A C89A
-6.86

Indicate the recorded polymerase ribozyme fitness (log ratio) value for this variant: C13A G60C A84G
-2.96

Indicate the recorded polymerase ribozyme fitness (log ratio) value for this variant: U55C
-0.521

Indicate the recorded polymerase ribozyme fitness (log ratio) value for this variant: A41U G71C G117U
-5.03

Indicate the recorded polymerase ribozyme fitness (log ratio) value for this variant: A5G A41C
-0.911

Indicate the recorded polymerase ribozyme fitness (log ratio) value for this variant: C12G G60A C85G G117A U131A
-1.29

Indicate the recorded polymerase ribozyme fitness (log ratio) value for this variant: C11G G35C G45U G71A U81A U112A U125A
-6.05

Indicate the recorded polymerase ribozyme fitness (log ratio) value for this variant: C13A G36C G60U A66U A95C
-6.15

Indicate the recorded polymerase ribozyme fitness (log ratio) value for this variant: A24G A43G
-3.13

Indicate the recorded polymerase ribozyme fitness (log ratio) value for this variant: G39U G113A
-1.25
